target: VTCN1, Q7Z7D3
Sequence (Q7Z7D3 whole entry): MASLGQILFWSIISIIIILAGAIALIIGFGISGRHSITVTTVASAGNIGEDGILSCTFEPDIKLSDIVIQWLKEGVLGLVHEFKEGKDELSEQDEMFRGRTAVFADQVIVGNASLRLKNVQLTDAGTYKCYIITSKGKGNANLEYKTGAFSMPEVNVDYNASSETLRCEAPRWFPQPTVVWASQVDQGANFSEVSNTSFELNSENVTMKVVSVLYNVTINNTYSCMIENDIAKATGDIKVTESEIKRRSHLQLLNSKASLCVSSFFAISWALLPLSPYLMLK
TEST_READOUT: binding in a display sort

design_608_fd41b8f9-4da9-4c78-93ec-aaa316ed4933_1906_dldesign_0_cycle1_af2pred (protein) DVKKEAEKLRDKGKERAKRRLEDAKKISPQYAEAAYEALEQASKNAKKLAEKYPEAKEIYEELAKYFEEQAKKAKEIAE    not found (inactive)
design_606_b60ff77f-1541-4e5f-8260-46d5e5f6b85e_1160_dldesign_0_cycle1_af2pred (protein) AEAARRAALVAKVDAAFDDAGKTISEAKEKTPEEAKALVDAAIAKANAEAKAHPEAAKGFNAVADTAKSMGERIIAEKLA    not found (inactive)
design_598_15ab41e9-cad4-4381-8935-81f74b313fe8_1756_dldesign_0_cycle1_af2pred (protein) GFKEEAEKKMEKVLEEAKKASVKEAATIVREAYAELKGIGHLLEKKGKKEEGKFAEEVAKKVLEEGKKIVEEKAAA    not found (inactive)
